assay: Analysis and comparison of properties: moisture; type: physicochemical; conditions: solid forms prepared from crude ergothioneine
quantity: Moisture (%)

molecule	Moisture (%)
C[N+](C)(C)[C@@H](Cc1c[nH]c(=S)[nH]1)C(=O)[O-] [Crystal form C, ergothioneine]	0.09

(1) C[N+](C)(C)[C@@H](Cc1c[nH]c(=S)[nH]1)C(=O)[O-] [Crystal form A, ergothioneine]
(2) C[N+](C)(C)[C@@H](Cc1c[nH]c(=S)[nH]1)C(=O)[O-] [Amorphous, ergothioneine]
(3) C[N+](C)(C)[C@@H](Cc1c[nH]c(=S)[nH]1)C(=O)[O-] [Crystal form B, ergothioneine]
Reorder the items by Moisture (%), least to greatest. // ordering of labels required in reply
1, 3, 2

* * *

Assay: Analysis and comparison of properties: hygroscopicity
Format: physicochemical
Conditions: solid forms prepared from crude ergothioneine
Procedure: X-ray diffraction (XRD), differential scanning calorimetry (DSC), elemental analysis, particle size analysis, quantitative nuclear magnetic resonance (NMR), Raman spectroscopy, infrared spectroscopy (IR), TGA, IPC-MS, DVS and other tests were carried out on the crystal forms prepared in the Examples. Using crude ergothioneine as raw material, three crystal forms A, B and C were prepared respectively, and their properties were compared with those of amorphous ergothioneine.

compound	Hygroscopicity
C[N+](C)(C)[C@@H](Cc1c[nH]c(=S)[nH]1)C(=O)[O-] [Crystal form A, ergothioneine]	Stable
C[N+](C)(C)[C@@H](Cc1c[nH]c(=S)[nH]1)C(=O)[O-] [Crystal form C, ergothioneine]	Stable
C[N+](C)(C)[C@@H](Cc1c[nH]c(=S)[nH]1)C(=O)[O-] [Crystal form B, ergothioneine]	Stable
